meta.source: ChEMBL document CHEMBL3351342

- method_summary: Cmax in Sprague-Dawley rat at 1 mg/kg, po
- Assay type: ADME, organism-based
- Design: dose 1 mg/kg, route oral
- protocol_conditions: in vivo

{"item_smiles": "Cc1cc(OCCCS(C)(=O)=O)cc(C)c1-c1cccc(COc2ccc(OCC(=O)O)c(F)c2)c1", "unit_info": "ng/mL", "Cmax": 1170}

---

- method_summary: Half life in Sprague-Dawley rat at 1 mg/kg, po
- Assay type: ADME, organism-based
- Design: dose 1 mg/kg, route oral
- protocol_conditions: in vivo
readout_kind: half-life (h)

{"item_smiles": "Cc1cc(OCCCS(C)(=O)=O)cc(C)c1-c1cccc(COc2ccc(OCC(=O)O)c(F)c2)c1", "test_result": 3.27}

---

- method_summary: Half life in Sprague-Dawley rat at 1 mg/kg, iv
- Type: ADME, organism-based
- Design: dose 1 mg/kg, route intravenous
- protocol_conditions: in vivo
readout_kind: half-life (h)

{"item_smiles": "Cc1cc(OCCCS(C)(=O)=O)cc(C)c1-c1cccc(COc2ccc(OCC(=O)O)c(F)c2)c1", "unit_info": "h", "test_result": 4.15}

---

- system: Free fatty acid receptor 1 (Homo sapiens)
- Sequence (O14842 whole entry): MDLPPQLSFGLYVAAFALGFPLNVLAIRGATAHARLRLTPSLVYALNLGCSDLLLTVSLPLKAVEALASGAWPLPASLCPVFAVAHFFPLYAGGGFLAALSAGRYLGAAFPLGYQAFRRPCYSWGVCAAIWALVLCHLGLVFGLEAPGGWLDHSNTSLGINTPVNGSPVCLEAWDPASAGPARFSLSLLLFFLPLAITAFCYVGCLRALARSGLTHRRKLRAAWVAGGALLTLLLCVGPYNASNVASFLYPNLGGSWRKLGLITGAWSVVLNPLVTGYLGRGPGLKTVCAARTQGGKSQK
- method_summary: Agonist activity at human FFA1 expressed in CHO cells assessed as ratio of increase in intracellular Ca2+ concentration in compound treated cells at 100 nM to vehicle-treated cells by Fluo-4 AM based fluorescence assay
- Assay type: functional, cell-based

{"molecule": "Cc1cc(OCCCS(C)(=O)=O)cc(C)c1-c1cccc(COc2ccc(OC(C)C(=O)O)cc2)c1 (stereo not drawn)", "Ratio": 4.04}
{"molecule": "Cc1cc(OCCCS(C)(=O)=O)cc(C)c1-c1cccc(COc2ccc(OCC(=O)O)c(F)c2)c1", "Ratio": 6.42}
{"molecule": "CCc1cc(OCc2cccc(-c3c(C)cc(OCCCS(C)(=O)=O)cc3C)c2)ccc1OC(C)(C)C(=O)O", "Ratio": 1.48}
{"molecule": "CCc1cc(OCc2cccc(-c3c(C)cc(OCCCS(C)(=O)=O)cc3C)c2)ccc1OCC(=O)O", "Ratio": 3.19}
{"molecule": "COc1cc(OCc2cccc(-c3c(C)cc(OCCCS(C)(=O)=O)cc3C)c2)ccc1OCC(=O)O", "Ratio": 2.02}
{"molecule": "Cc1cc(OCCCS(C)(=O)=O)cc(C)c1-c1cccc(COc2ccc(OC(C)(C)C(=O)O)c(Cl)c2)c1", "Ratio": 3.04}
{"molecule": "Cc1cc(OCCCS(C)(=O)=O)cc(C)c1-c1cccc(COc2ccc(OCC(=O)O)cc2)c1", "Ratio": 6.04}
{"molecule": "CCC(Oc1ccc(OCc2cccc(-c3c(C)cc(OCCCS(C)(=O)=O)cc3C)c2)cc1)C(=O)O (stereo not drawn)", "Ratio": 3.04}

---

- method_summary: AUC (0 to 8 hrs) in Sprague-Dawley rat at 1 mg/kg, po
- Format: ADME, organism-based
- Parameters: time < 8 hr, dose 1 mg/kg, route oral
- protocol_conditions: plasma
readout_kind: AUC(0-t) at 8 h

{"item_smiles": "Cc1cc(OCCCS(C)(=O)=O)cc(C)c1-c1cccc(COc2ccc(OCC(=O)O)c(F)c2)c1", "test_result": "5340 ng·h/mL"}

---

- system: Free fatty acid receptor 1 (Homo sapiens)
- method_summary: Agonist activity at human FFA1 expressed in CHO cells assessed as ratio of increase in intracellular Ca2+ concentration in compound treated cells at 100 nM to vehicle-treated cells by Fluo-4 AM based fluorescence assay
- Format: functional, cell-based

{"item_smiles": "Cc1cc(OCCCS(C)(=O)=O)cc(C)c1-c1cccc(COc2ccc(OCC(=O)O)c(Cl)c2)c1", "Ratio": 6.18}
{"item_smiles": "Cc1cc(OCc2cccc(-c3c(C)cc(OCCCS(C)(=O)=O)cc3C)c2)cc(C)c1OC(C)(C)C(=O)O", "Ratio": 1.6}
{"item_smiles": "Cc1cc(OCCCS(C)(=O)=O)cc(C)c1-c1cccc(COc2ccc(OC(C)(C)C(=O)O)cc2)c1", "Ratio": 2.45}
{"item_smiles": "Cc1cc(OCc2cccc(-c3c(C)cc(OCCCS(C)(=O)=O)cc3C)c2)ccc1OCC(=O)O", "Ratio": 5.64}
{"item_smiles": "COc1cc(OCc2cccc(-c3c(C)cc(OCCCS(C)(=O)=O)cc3C)c2)ccc1OC(C)(C)C(=O)O", "Ratio": 1.81}
{"item_smiles": "Cc1cc(OCCCS(C)(=O)=O)cc(C)c1-c1cccc(COc2ccc(OC(C)(C)C(=O)O)c(F)c2)c1", "Ratio": 3.06}

---

- method_summary: Tmax in Sprague-Dawley rat at 1 mg/kg, po
- Assay type: ADME, organism-based
- Set-up: dose 1 mg/kg, route oral
- protocol_conditions: in vivo

{"item_smiles": "Cc1cc(OCCCS(C)(=O)=O)cc(C)c1-c1cccc(COc2ccc(OCC(=O)O)c(F)c2)c1", "unit_info": "h", "Tmax": 1}

---

- system: Free fatty acid receptor 1 (Homo sapiens)
- method_summary: Agonist activity at human FFA1 expressed in CHO cells assessed as increase in intracellular Ca2+ concentration by Fluo-4 AM based fluorescence assay
readout_kind: EC50 (nM)

{"compound": "Cc1cc(OCCCS(C)(=O)=O)cc(C)c1-c1cccc(COc2ccc(OC(C)C(=O)O)cc2)c1 (stereo not given)", "test_result": 389}
{"compound": "Cc1cc(OCCCS(C)(=O)=O)cc(C)c1-c1cccc(COc2ccc(OCC(=O)O)cc2)c1", "test_result": 121}
{"compound": "Cc1cc(OCCCS(C)(=O)=O)cc(C)c1-c1cccc(COc2ccc(OCC(=O)O)c(Cl)c2)c1", "test_result": 92.6}
{"compound": "Cc1cc(OCc2cccc(-c3c(C)cc(OCCCS(C)(=O)=O)cc3C)c2)ccc1OCC(=O)O", "test_result": 153}
{"compound": "Cc1cc(OCCCS(C)(=O)=O)cc(C)c1-c1cccc(COc2ccc(OCC(=O)O)c(F)c2)c1", "test_result": 62.3}

---

- method_summary: Volume of distribution in Sprague-Dawley rat at 1 mg/kg, iv
- Format: ADME, organism-based
- Design: dose 1 mg/kg, route intravenous
- protocol_conditions: in vivo
readout_kind: Vd (L/kg)

{"item_smiles": "Cc1cc(OCCCS(C)(=O)=O)cc(C)c1-c1cccc(COc2ccc(OCC(=O)O)c(F)c2)c1", "readout_kind": "Vd", "unit_info": "L/kg", "test_result": 0.26}
